All figures here come from BindingDB's records for doi:10.1111/j.1476-5381.1995.tb13240.x.

target: 5-hydroxytryptamine receptor 2B (Rattus norvegicus)
Sequence (P30994 whole entry): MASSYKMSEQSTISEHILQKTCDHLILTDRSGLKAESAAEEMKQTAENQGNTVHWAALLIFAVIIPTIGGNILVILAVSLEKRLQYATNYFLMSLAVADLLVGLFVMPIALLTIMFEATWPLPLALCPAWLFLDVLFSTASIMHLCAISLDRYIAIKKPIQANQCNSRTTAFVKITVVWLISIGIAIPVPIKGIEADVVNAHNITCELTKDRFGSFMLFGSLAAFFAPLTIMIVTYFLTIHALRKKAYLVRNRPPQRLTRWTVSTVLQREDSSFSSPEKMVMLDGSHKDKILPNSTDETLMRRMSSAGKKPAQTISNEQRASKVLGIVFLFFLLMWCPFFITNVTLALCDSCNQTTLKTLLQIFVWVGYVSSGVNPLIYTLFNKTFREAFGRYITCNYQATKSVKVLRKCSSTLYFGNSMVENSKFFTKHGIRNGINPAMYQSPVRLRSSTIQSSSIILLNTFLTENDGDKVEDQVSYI
Quantity: Ki (nM)
Numeric answer only, unit nM assumed.

Which Ki is reported with 5-hydroxytryptamine receptor 2B (Rattus norvegicus) for this entry: CC(N)Cc1c[nH]c2ccc(OCc3cccs3)cc12 (stereo unspecified) ? 12.6

* * *

Sequence of the target: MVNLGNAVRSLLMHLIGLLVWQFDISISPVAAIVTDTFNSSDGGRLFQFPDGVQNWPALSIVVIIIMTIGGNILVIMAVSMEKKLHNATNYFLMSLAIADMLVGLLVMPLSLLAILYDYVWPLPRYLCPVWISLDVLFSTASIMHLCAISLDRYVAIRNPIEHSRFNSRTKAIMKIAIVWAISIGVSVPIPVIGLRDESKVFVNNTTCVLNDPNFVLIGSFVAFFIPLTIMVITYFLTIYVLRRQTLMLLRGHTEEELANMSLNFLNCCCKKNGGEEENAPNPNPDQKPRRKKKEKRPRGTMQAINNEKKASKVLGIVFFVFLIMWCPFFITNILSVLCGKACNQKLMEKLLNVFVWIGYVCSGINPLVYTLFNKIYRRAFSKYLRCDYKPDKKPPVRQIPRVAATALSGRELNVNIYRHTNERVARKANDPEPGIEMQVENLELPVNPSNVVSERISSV
Quantity: Ki

Which Ki value is on record for COC(=O)[C@@H]1[C@H]2C[C@H]3c4[nH]c5ccccc5c4CCN3C[C@@H]2CC[C@@H]1O ? 5.01 µM

* * *

Target: 5-hydroxytryptamine receptor 2C (Homo sapiens)
Sequence (P28335 whole entry): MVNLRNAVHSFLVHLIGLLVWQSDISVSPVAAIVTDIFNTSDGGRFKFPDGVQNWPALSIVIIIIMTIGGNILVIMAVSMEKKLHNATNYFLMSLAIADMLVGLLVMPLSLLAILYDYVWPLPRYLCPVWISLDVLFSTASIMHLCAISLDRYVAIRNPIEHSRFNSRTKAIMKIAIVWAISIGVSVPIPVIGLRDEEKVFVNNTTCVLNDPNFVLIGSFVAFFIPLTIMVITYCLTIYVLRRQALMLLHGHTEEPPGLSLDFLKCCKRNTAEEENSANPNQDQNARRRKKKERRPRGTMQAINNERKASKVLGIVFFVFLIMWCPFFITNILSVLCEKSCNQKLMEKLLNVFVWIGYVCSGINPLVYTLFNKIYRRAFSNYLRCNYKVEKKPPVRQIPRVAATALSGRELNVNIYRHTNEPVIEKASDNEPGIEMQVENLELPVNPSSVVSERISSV
Quantity: Ki (nM)
# unit: nM | format: bare number

Entry CC(N)Cc1c[nH]c2ccc(OCc3cccs3)cc12 (stereo unspecified) [NSC_5311036] has what Ki? 316
